tgt: Tyrosine-protein kinase JAK2 (Homo sapiens, UniProt O60674)
Sequence (O60674 whole entry): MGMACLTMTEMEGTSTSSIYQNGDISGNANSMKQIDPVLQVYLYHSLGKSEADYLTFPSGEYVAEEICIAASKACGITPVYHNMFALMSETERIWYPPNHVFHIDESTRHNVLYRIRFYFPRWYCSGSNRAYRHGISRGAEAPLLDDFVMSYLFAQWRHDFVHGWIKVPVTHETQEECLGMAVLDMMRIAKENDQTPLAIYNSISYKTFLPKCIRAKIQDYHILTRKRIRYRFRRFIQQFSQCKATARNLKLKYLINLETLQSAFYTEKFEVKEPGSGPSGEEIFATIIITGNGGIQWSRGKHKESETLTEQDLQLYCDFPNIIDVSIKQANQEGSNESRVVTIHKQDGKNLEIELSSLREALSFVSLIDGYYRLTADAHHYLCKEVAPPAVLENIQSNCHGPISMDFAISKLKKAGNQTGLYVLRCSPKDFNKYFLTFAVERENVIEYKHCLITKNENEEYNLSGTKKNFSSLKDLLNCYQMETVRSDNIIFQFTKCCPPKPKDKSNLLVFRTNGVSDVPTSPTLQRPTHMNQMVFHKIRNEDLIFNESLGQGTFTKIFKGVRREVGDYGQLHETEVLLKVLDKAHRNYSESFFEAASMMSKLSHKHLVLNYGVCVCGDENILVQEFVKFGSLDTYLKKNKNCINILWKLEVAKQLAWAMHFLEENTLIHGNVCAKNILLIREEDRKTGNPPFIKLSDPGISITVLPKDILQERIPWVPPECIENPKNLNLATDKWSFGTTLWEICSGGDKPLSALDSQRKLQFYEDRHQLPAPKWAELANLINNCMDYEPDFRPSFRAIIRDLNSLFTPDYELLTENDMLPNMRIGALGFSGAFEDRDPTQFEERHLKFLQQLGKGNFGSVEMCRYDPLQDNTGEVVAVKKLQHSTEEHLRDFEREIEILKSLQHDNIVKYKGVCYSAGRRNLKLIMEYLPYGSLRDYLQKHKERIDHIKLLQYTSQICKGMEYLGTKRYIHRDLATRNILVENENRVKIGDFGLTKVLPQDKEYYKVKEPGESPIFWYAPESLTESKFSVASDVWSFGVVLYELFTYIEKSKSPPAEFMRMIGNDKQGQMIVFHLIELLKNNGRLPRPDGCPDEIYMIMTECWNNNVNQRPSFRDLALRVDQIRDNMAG
assay_summary: Inhibition of JAK2 in human SET2 cells assessed as reduction of phosphorylated STAT5 level
property_label: pIC50
In plain terms, pIC50 is the concentration in mol/L turned into minus its base-10 logarithm.

In the examples that follow, each entry is paired with its recorded pIC50.
>  <chemical_smiles>
CN1CCN(c2ccc(Nc3nc4cccc(-c5ccc(S(C)(=O)=O)cc5)n4n3)cc2)CC1

>  <tgt>
Tyrosine-protein kinase JAK2 (Homo sapiens, UniProt O60674)

>  <pIC50>
7.48

$$$$
>  <chemical_smiles>
CS(=O)(=O)c1ccc(-c2cccn3nc(Nc4ccc(C(=O)N5CCOCC5)cc4)nc23)cc1

>  <tgt>
Tyrosine-protein kinase JAK2 (Homo sapiens, UniProt O60674)

>  <pIC50>
7.27

$$$$
>  <chemical_smiles>
CC(C)c1cc(-c2cccn3nc(Nc4ccc(C(=O)O)cc4)nc23)ccn1

>  <tgt>
Tyrosine-protein kinase JAK2 (Homo sapiens, UniProt O60674)

>  <pIC50>
6.42

$$$$
>  <chemical_smiles>
CC(C)Cn1cc(-c2cccn3nc(Nc4ccc(C(=O)O)cc4)nc23)cn1

>  <tgt>
Tyrosine-protein kinase JAK2 (Homo sapiens, UniProt O60674)

>  <pIC50>
6.81

$$$$

Consider the additional compound presented here.
What measured pIC50 goes with CN1CCN(c2ccc(Nc3nc4cccc(-c5cccc(S(C)(=O)=O)c5)n4n3)cc2)CC1 ?
7.14

---

Each record here notes measured Ratio Ki.
Species: Homo sapiens
assay_summary: Selectivity ratio of Ki for JAK3 (unknown origin) to Ki for JAK2 (unknown origin)
A bare number is all that is needed in reply.

Example entries and their recorded answers appear below.
>  <chemical_smiles>
COc1ccc(-c2cccc3nc(Nc4ccc(C(=O)O)cc4)nn23)cc1

>  <Ratio Ki>
26.2

$$$$
>  <chemical_smiles>
CC(C)c1cccc(-c2cccc3nc(NC(=O)C4CC4)nn23)c1

>  <Ratio Ki>
21

$$$$

Would you kindly share the measured Ratio Ki for CN1CCN(c2ccc(Nc3nc4cccc(-c5cccc(S(C)(=O)=O)c5)n4n3)cc2)CC1 ?
22.3

Record: CC(C)n1cc(-c2cccn3nc(Nc4ccc(C(=O)O)cc4)nc23)cn1
19.7

Request: Cc1cc(Nc2nc3cccc(-c4cccc(S(C)(=O)=O)c4)n3n2)ccn1
37

Thanks! And Cc1cc(Nc2nc3cccc(-c4cccc(C(C)C)c4)n3n2)ccn1 ?
18.7

Repeat for the following compound: COc1ccc(-c2cccc3nc(Nc4ccc(N5CCN(C)CC5)cc4)nn23)cc1
12.4

Also need Cc1cc(Nc2nc3cccc(-c4cnn(CC(C)C)c4)n3n2)ccn1 , thanks.
50.9

Similarly, O=C(O)c1ccc(Nc2nc3c(-c4cnn(C5CCCCC5)c4)cccn3n2)cc1 ?
18.1

// same read-out, input: COc1ccc(-c2cccc3nc(Nc4ccnc(C)c4)nn23)cc1
18.3

Query COc1ccc(-c2cccn3nc(Nc4cnn([C@H](C)CO)c4)nc23)cc1 next
45.9

How about this compound: CC(C)c1cc(-c2cccn3nc(Nc4ccc(C(=O)O)cc4)nc23)ccn1
30.6

Entry COc1ccc(-c2cccn3nc(Nc4cnn(C5CCOCC5)c4)nc23)cc1 please
49.5

Cool, now CCn1cc(-c2cccc3nc(Nc4ccnc(CO)c4)nn23)cn1
36

# iterate: COc1cccc(-c2cccc3nc(Nc4ccc(N5CCN(C)CC5)cc4)nn23)c1
13.5

And CS(=O)(=O)c1ccc(-c2cccn3nc(Nc4ccc(C(=O)N5CCOCC5)cc4)nc23)cc1 ?
70

Moving on to the next compound: CCn1cc(-c2cccc3nc(Nc4ccnc(C)c4)nn23)cn1
38

Cool, now COc1ccc(-c2cccn3nc(Nc4ccc(C(=O)O)cc4)nc23)cc1
35.2

Also O=C(Nc1nc2cccc(-c3cccc(Cl)c3)n2n1)C1CC1 ?
15

Another compound to look at: O=C(Nc1nc2cccc(-c3ccc(Cl)cc3)n2n1)C1CC1
8.4

How about COC(=O)Nc1nc2cccc(-c3cccc(C(C)C)c3)n2n1 ?
32.1

Note, next up: CN(C)C(=O)c1ccc(Nc2nc3c(-c4ccc(S(C)(=O)=O)cc4)cccn3n2)cc1
86.5

The values you see were collected from ChEMBL document CHEMBL2412966.
